Biological target: AgrA (Listeria monocytogenes, UniProt Q8YAR4, D158A)
Test: biochemical
MEASURED ATTRIBUTE: Kd (µM)
State just the number; it will be interpreted in µM.

Look at this compound and give its reported Kd. "O=CC=Cc1ccccc1" 62

====

Molecular target: AgrA (Listeria monocytogenes, UniProt Q8YAR4, K177A)
Construct: gene lmo0051
Test: biochemical
MEASURED ATTRIBUTE: Kd (µM)
State just the number; it will be interpreted in µM.

Look at this molecule and give its reported Kd. "O=CC=Cc1ccccc1" 58.3

====

Molecular target: AgrA (Listeria monocytogenes, UniProt Q8YAR4, H29A)
Experiment: biochemical
MEASURED ATTRIBUTE: pKd
// pKd here means minus log10 of the molar concentration (mol/L)

Look at this compound and give its reported pKd. "O=CC=Cc1ccccc1" 4.24
